Study target: T1, 4H349-bH
T1 chain: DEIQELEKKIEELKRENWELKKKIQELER
Experiment description: two-hybrid library CCNG1;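 note: natural log of median RNA to DNA barcode read ratio; higher means stronger binding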
Observable: interaction score

Completed entries (count: 2):
DKIQELKKKIEELKRKNWELEKENQELER [4H2931-bH]; -0.83
DKIQELKKKNEELKRKIWELEKEIQELER [4H3041-bH]; -0.833

[P] DKIQELEKKNEELKRENWELEKKIQELKR [4H2518-bH]
[Q] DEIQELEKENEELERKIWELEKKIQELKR [4H166-bH]
Which record would sort first by descending interaction score, P or Q ? Bench note: the answer is the label of the chosen record.
Q
